System name: hMCHR (Homo sapiens, UniProt Q99705)
Sequence (Q99705 whole entry): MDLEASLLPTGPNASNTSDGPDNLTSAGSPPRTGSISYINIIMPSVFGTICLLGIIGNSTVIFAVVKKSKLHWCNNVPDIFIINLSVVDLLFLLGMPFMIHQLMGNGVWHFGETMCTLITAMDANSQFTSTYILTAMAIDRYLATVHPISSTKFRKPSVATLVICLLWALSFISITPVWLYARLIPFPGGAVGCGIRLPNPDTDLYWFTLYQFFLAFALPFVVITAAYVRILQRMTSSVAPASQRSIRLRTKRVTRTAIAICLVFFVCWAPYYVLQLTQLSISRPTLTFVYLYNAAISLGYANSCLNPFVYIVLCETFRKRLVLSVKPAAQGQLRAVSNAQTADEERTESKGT
Reported Ki values follow for various compounds

Here is how some compounds turned out for Ki.
Compound: CC(=O)c1cccc(-c2ccc(C3(CNC(=O)Nc4cc(Cl)cc(Cl)c4)CCN(C(C)C)CC3)cc2)c1 [Example 80]
Ki: 11 to 100 nM

Compound: O=C(NCC1(c2ccc(-c3cccc(Cl)c3)cc2)CCN(C2CCOCC2)CC1)Nc1cc(Cl)cc(Cl)c1 [Example 114]
Ki: 101 to 5500 nM

Compound: COCCN1CCC(CNC(=O)Nc2cc(F)cc(C(F)(F)F)c2)(c2ccc(-c3cccc(C#N)c3)cc2)CC1 [Example 89]
Ki: 0.2 to 10 nM

Compound: COCCN1CCC(CNCc2cc(Cl)cc(Cl)c2)(c2ccc(-c3cccc(Cl)c3)cc2)CC1 [Example 129]
Ki: 101 to 5500 nM

Compound: CN1CCC(CNC(=O)Nc2cc(C(F)(F)F)ccc2Cl)(c2ccc(-c3cccc(C#N)c3)cc2)CC1 [Example 69]
Ki: 11 to 100 nM

## Task Requested read-out: Ki. Entry: CN1CCC(CNC(=O)Nc2ccccc2)(c2ccc(-c3cccc(Cl)c3)cc2)CC1 [Example 62]
## Result 0.2 to 10 nM

## Task Endpoint output: Ki of COCCN1CCC(CNC(=O)Nc2ccc(F)c(F)c2)(c2ccc(-c3cccc(C#N)c3)cc2)CC1 [Example 91] . Value?
## Result 0.2 to 10 nM

## Task Dear colleague, I am looking for the recorded Ki of the following compound: O=C(NCC1(c2ccc(-c3cccnc3)cc2)CCN(C2CCCC2)CC1)Nc1cc(Cl)cc(Cl)c1 [Example 20]
## Result 0.2 to 10 nM

====

pKi: −log10 of the molar value.
Target or system hMCHR (Homo sapiens, UniProt Q99705): recorded pKi listed per item.

Solved cases (2 shown):
Smiles record: CC(=O)Nc1cccc(-c2ccc(C3(CNC(=O)Nc4cc(Cl)cc(Cl)c4)CCN(C4CCOCC4)CC3)cc2)c1
pKi: 7.00 to 7.96
//
Smiles record: N#Cc1cccc(-c2ccc(C3(CNC(=O)Cc4cc(F)cc(F)c4)CCN(CC4CC4)CC3)cc2)c1
pKi: 5.26 to 7.00

Please look at the following molecule next.
## Task Look up pKi: "CCCN1CCC(CNC(=O)Nc2ccc(Cl)c(C(F)(F)F)c2)(c2ccc(-c3cccc(Cl)c3)cc2)CC1"
## Result 7.00 to 7.96
